The entries below come with measured pIC50 values attached.
assay system: UniProt:Q9GZQ6
experiment description: Human NPFFR1 evaluation using BRET biosensors in HEK-293 T cells
measurement setup: hNPFFR1 in HEK-293 T cells, stimulated by EC80 RFRP-3, read-out: IC50 of antagonist activity
pIC50: −log10 of the molar value.

{"columns": ["molecule", "assay system", "pIC50"],
 "data": [
  ["Nc1ccc(-c2ccccc2OC(F)(F)F)c(N)n1 [Compound 2c]", "UniProt:Q9GZQ6", "6.00 to 6.30"],
  ["CCNc1nc(N)ccc1-c1cccc(Cl)c1Cl [Compound 5b]", "UniProt:Q9GZQ6", "6.00 to 6.30"],
  ["Nc1ccc(-c2cc(Cl)ccc2C2CC2)c(N)n1 [Compound 55]", "UniProt:Q9GZQ6", "6.30 to 7.00"],
  ["Cc1cc(C(F)(F)F)ccc1-c1ccc(N)nc1N [Compound 57]", "UniProt:Q9GZQ6", "< 6.00"],
  ["Nc1ccc(-c2ccc(Cl)cc2Cl)c(N)n1 [Compound 1k]", "UniProt:Q9GZQ6", "6.30 to 7.00"],
  ["Nc1ccc(-c2cccc(Cl)c2Cl)c(NCc2ccccc2)n1 [Compound 5d]", "UniProt:Q9GZQ6", "< 6.00"],
  ["Cl.Nc1ccc(-c2ccc(Cl)c3ccccc23)c(N)n1 [Compound 73]", "UniProt:Q9GZQ6", "> 7.00"],
  ["COCc1ccccc1-c1ccc(N)nc1N [Compound 1g]", "UniProt:Q9GZQ6", "6.00 to 6.30"],
  ["Nc1ccc(-c2cc(Cl)cc(Cl)c2)c(N)n1 [Compound 1o]", "UniProt:Q9GZQ6", "< 6.00"],
  ["CCc1nc(N)ccc1-c1cccc(Cl)c1Cl [Compound 6c]", "UniProt:Q9GZQ6", "6.00 to 6.30"]
]}

---

The entries below come with measured IC50 values attached.
assay system: human NPFFR1 (hNPFFR1) receptor (Homo sapiens)
Sequence (Q9GZQ6 whole entry): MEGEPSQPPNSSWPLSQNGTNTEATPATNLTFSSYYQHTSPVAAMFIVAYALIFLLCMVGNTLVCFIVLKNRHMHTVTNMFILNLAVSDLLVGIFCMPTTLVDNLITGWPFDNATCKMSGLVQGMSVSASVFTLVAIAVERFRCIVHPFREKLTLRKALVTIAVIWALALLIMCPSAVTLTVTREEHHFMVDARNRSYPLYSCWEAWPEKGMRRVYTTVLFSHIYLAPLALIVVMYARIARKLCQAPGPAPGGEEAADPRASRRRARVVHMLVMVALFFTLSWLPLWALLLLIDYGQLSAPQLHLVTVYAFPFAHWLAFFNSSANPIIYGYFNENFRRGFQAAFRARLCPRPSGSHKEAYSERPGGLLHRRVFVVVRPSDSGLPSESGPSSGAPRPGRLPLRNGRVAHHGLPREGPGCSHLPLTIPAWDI
experiment description: Human NPFFR1 evaluation using BRET biosensors in HEK-293 T cells
measurement setup: hNPFFR1 in HEK-293 T cells, stimulated by EC80 RFRP-3, read-out: IC50 of antagonist activity

{"columns": ["compound", "IC50"],
 "data": [
  ["Cl.Nc1ccc(-c2ccc(F)c3ccccc23)c(N)n1", "< 100 nM"],
  ["COc1ccc(-c2ccc(N)nc2N)c(C)c1", "> 1000 nM"],
  ["CC(C)COc1ccccc1-c1ccc(N)nc1N", "100 to 500 nM"],
  ["Nc1ccc(-c2ccc(Cl)cc2OC2CCCC2)c(N)n1", "500 to 1000 nM"],
  ["Cc1ccc(OC(C)C)c(-c2ccc(N)nc2N)c1", "500 to 1000 nM"],
  ["Cc1cc(N)ncc1-c1cccc(Cl)c1Cl", "> 1000 nM"],
  ["Nc1ccc(Cc2ccc(F)cc2)c(N)n1 [Compound 10b, 3-(4-fluorobenzyl)pyridine-2,6-diamine]", "> 1000 nM"],
  ["Cc1ccc(Cl)cc1-c1ccc(N)nc1N", "100 to 500 nM"],
  ["CCc1nc(N)ccc1-c1ccccc1OC", "100 to 500 nM"],
  ["Cl.Nc1ccc(-c2ccccc2OCc2ccccc2)c(N)n1", "< 100 nM"],
  ["Nc1ccc(-c2cccc(Cl)c2Cl)cn1", "> 1000 nM"],
  ["CNc1nc(N)ccc1-c1cccc(Cl)c1Cl", "> 1000 nM"],
  ["Nc1ccc(Cc2ccc(Cl)cc2Cl)c(N)n1 [Compound 10f]", "100 to 500 nM"],
  ["CCc1nc(N)ccc1-c1ccccc1C1CC1.Cl", "100 to 500 nM"],
  ["CC(C)Nc1nc(N)ccc1-c1cccc(Cl)c1Cl", "> 1000 nM"],
  ["Nc1ccc(-c2cc(Cl)ccc2Cl)c(N)n1", "100 to 500 nM"],
  ["COc1ccccc1-c1c(C)cc(N)nc1C", "> 1000 nM"],
  ["CCOc1ccccc1-c1ccc(N)nc1N", "100 to 500 nM"],
  ["CCc1nc(N)ccc1-c1ccccc1OC1CCCC1.Cl", "< 100 nM"],
  ["COc1cccc(-c2ccc(N)nc2N)c1OC", "> 1000 nM"],
  ["Nc1ccc(-c2ccccc2Oc2ccccc2)c(N)n1", "100 to 500 nM"]
]}
